Source listed as paper PMC9457746.

biological target: hCA IX (Homo sapiens); experiment: stopped flow CO2 hydrase assay, hCA IX inhibition
readout: Ki (µM)

{"columns": ["compound", "experimental.system", "Ki (µM)"],
 "data": [
  ["Cc1cccc(NC(=O)NNC(=O)C2CCN(C(=O)c3ccc(S(N)(=O)=O)cc3)CC2)c1 [Compound 5k]", "hCA IX (Homo sapiens)", 0.0082],
  ["NS(=O)(=O)c1ccc(C(=O)N2CCC(C(=O)NNC(=S)Nc3ccc([N+](=O)[O-])cc3)CC2)cc1 [Compound 6b]", "hCA IX (Homo sapiens)", 0.0136],
  ["NS(=O)(=O)c1ccc(C(=O)N2CCC(C(=O)NNC(=O)Nc3c(F)cccc3F)CC2)cc1 [Compound 5i]", "hCA IX (Homo sapiens)", 0.0101]
]}

----------
molecular target: hCA XII (Homo sapiens, UniProt O43570); experiment: stopped flow CO2 hydrase assay, hCA XII inhibition
Sequence (O43570 25-354): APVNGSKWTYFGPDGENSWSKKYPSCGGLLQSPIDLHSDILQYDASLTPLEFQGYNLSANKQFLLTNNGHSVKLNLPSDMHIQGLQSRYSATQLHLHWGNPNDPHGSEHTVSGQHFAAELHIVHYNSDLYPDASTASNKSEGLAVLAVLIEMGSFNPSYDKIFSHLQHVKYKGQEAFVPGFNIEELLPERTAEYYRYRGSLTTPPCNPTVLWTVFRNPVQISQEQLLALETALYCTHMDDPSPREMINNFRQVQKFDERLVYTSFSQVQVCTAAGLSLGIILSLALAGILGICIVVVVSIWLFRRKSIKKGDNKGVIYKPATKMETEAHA
readout: Ki (nM)

The following molecules have reported results that may help.
{"columns": ["molecule", "experimental.system", "readout", "units.text", "endpoint.value"],
 "data": [
  ["NS(=O)(=O)c1ccc(C(=O)N2CCC(C(=O)NNC(=O)Nc3c(Cl)cccc3Cl)CC2)cc1 [Compound 5e]", "hCA XII (Homo sapiens, UniProt O43570)", "Ki", "nM", 16.4],
  ["NS(=O)(=O)c1ccc(C(=O)N2CCC(C(=O)NNC(=S)Nc3ccc(Cl)c(Cl)c3)CC2)cc1 [Compound 6g]", "hCA XII (Homo sapiens, UniProt O43570)", "Ki", "nM", 26.9],
  ["COc1ccc(NC(=O)NNC(=O)C2CCN(C(=O)c3ccc(S(N)(=O)=O)cc3)CC2)c(OC)c1 [Compound 5r]", "hCA XII (Homo sapiens, UniProt O43570)", "Ki", "nM", 15.6]
]}

I = COc1cccc(NC(=O)NNC(=O)C2CCN(C(=O)c3ccc(S(N)(=O)=O)cc3)CC2)c1 [Compound 5p]
II = NS(=O)(=O)c1ccc(C(=O)N2CCC(C(=O)NNC(=S)NCc3ccccc3)CC2)cc1 [Compound 6v]
III = NS(=O)(=O)c1ccc(C(=O)N2CCC(C(=O)NNC(=S)Nc3cccc(Cl)c3)CC2)cc1 [Compound 6e]
IV = NS(=O)(=O)c1ccc(C(=O)N2CCC(C(=O)NNC(=S)Nc3ccccc3F)CC2)cc1 [Compound 6n]
IN: Sort the 4 molecules by Ki; largest first, smallest last. Give me the labels in the order the question wants.
OUT: II, I, III, IV

I = NS(=O)(=O)c1ccc(C(=O)N2CCC(C(=O)NNC(=O)Nc3ccccc3)CC2)cc1 [Compound 5a]
II = NS(=O)(=O)c1ccc(C(=O)N2CCC(C(=O)NNC(=S)Nc3ccc(F)cc3)CC2)cc1 [Compound 6p]
IN: In the pair I and II , the larger recorded Ki belongs to which? Returns: label corresponding to the selected item.
OUT: I

----------
target: hCA I (Homo sapiens); assay: stopped flow CO2 hydrase assay, hCA I inhibition
Sequence (P00915 whole entry): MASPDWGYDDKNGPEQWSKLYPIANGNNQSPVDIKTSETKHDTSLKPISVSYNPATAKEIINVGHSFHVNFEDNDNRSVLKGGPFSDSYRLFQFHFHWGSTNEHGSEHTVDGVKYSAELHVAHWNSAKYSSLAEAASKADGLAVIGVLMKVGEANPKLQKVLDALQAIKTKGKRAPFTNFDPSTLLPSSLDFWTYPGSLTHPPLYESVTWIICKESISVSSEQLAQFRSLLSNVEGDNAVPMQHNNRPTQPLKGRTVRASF
pKi: −log10 of the molar value.
readout: pKi

a = Cc1cccc(C)c1NC(=S)NNC(=O)C1CCN(C(=O)c2ccc(S(N)(=O)=O)cc2)CC1
b = NS(=O)(=O)c1ccc(C(=O)N2CCC(C(=O)NNC(=S)Nc3ccccc3)CC2)cc1
c = NS(=O)(=O)c1ccc(C(=O)N2CCC(C(=O)NNC(=O)Nc3ccccc3)CC2)cc1
IN: Ascending by pKi, please. // ordering of labels required in reply
OUT: a, c, b
